# PROCEDURE_TEXT: Cytotoxicity against human U87MG cells after 72 hrs by MTT assay
# Type: functional, cell-based, U-87MG ATCC
# ASSAY_CONTEXT: U-87 MG
ENDPOINT_NAME: pIC50
Would you please state pIC50, meaning minus log10 of the concentration in mol/L, as a bare number?

>>> measured_result("Cc1ncc(CNC(=O)N(CCCl)N=O)c(N)n1")
6.08

For the next question, use this compound.
Exercise: What value of pIC50 has been recorded for this entry: CCC(CC[C@@H](C)[C@H]1[C@H](O[C@@H]2O[C@@H]([C@@H](O)COC)[C@H](O)[C@H]2O)CC2=C3[C@@H](O[C@@H]4O[C@@H]([C@@H](O)COC)[C@H](O)[C@H]4O)[C@@H](O)[C@H]4C[C@H](O)CC[C@]4(C)[C@H]3CC[C@@]21C)C(C)C (mixture of isomers)
Key: 5.44
